Experiment: Aqueous solubility of the compound in PBS at pH 7.4
Format: physicochemical
Measured Property: solubility (µM)
Report the value in µM with no unit label.

Find the recorded solubility belonging to O=C([O-])Cc1ccccc1Nc1c(Cl)cccc1Cl.[Na+] [DICLOFENAC SODIUM] and report it.
199

Values compiled from ChEMBL document CHEMBL5252657.
